- Measured On: fusion protein PRD
- Sequence (chain, as listed by the source): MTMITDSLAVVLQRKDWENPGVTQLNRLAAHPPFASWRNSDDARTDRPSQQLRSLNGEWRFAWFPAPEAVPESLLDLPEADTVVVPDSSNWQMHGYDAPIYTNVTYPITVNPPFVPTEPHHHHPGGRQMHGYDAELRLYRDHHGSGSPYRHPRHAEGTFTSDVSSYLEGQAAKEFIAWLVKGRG

[
  {
    "Protein": "OmpT protease variant OmpT D97F (protein) STETLSFTPDNINADISLGTLSGKTKERVYLAEEGGRKVSQLDWKFNNAAIIKGAINWDLMPQISIGAAGWTTLGSRGGNMVDQDWMDSSNPGTWTFESRHPDTQLNYANEFDLNIKGWLLNEPNYRLGLMAGYQESRYSFTARGGSYIYSSEEGFRDDIGSFPNGERAIGYKQRFKMPYIGLTGSYRYEDFELGGTFKYSGWVESSDNDEHYDPGKRITYRSKVKDQNYYSVAVNAGYYVTPNAKVYVEGAWNRVTNKKGNTSLYDHNNNTSDYSKNGAGIENYNFITTAGLKYTF",
    "relative cleavage efficiency": "less than 3%"
  },
  {
    "Protein": "OmpT protease variant OmpT D97E (protein) STETLSFTPDNINADISLGTLSGKTKERVYLAEEGGRKVSQLDWKFNNAAIIKGAINWDLMPQISIGAAGWTTLGSRGGNMVDQDWMDSSNPGTWTEESRHPDTQLNYANEFDLNIKGWLLNEPNYRLGLMAGYQESRYSFTARGGSYIYSSEEGFRDDIGSFPNGERAIGYKQRFKMPYIGLTGSYRYEDFELGGTFKYSGWVESSDNDEHYDPGKRITYRSKVKDQNYYSVAVNAGYYVTPNAKVYVEGAWNRVTNKKGNTSLYDHNNNTSDYSKNGAGIENYNFITTAGLKYTF",
    "relative cleavage efficiency": "less than 3%"
  }
]
